# Test system: LOU-NH91
# Experiment Description: relative viability (nuclei count vs DMSO), 5 days (fraction); higher = more cells survive
# Assay Conditions: first compound 0.253 µM
Reported Metric: relative viability
Give bare numbers.

Answered examples (3):
>>> result_number("Cc1cnc(-c2cnc(NCCNc3ccc(C#N)cn3)nc2-c2ccc(Cl)cc2Cl)[nH]1 + NC(=O)Nc1cc(-c2cccc(F)c2)sc1C(=O)N[C@H]1CCCNC1 [AZD7762] (partner 0.2 µM)")
0.753
>>> result_number("O=c1[nH]c2ccccc2n1C1CCN(CCCC(c2ccc(F)cc2)c2ccc(F)cc2)CC1 [Pimozide] + C[C@]1(O)C[C@@H](c2nc(-c3ccc4ccc(-c5ccccc5)nc4c3)c3c(N)nccn32)C1 [Linsitinib] (partner 1 µM)")
0.97
>>> result_number("O=c1[nH]c2ccccc2n1C1CCN(CCCC(c2ccc(F)cc2)c2ccc(F)cc2)CC1 [Pimozide] + CCNC(=O)c1noc(-c2cc(C(C)C)c(O)cc2O)c1-c1ccc(CN2CCOCC2)cc1 [Luminespib] (partner 0.01 µM)")
0.345

// for each compound below, give its relative viability
1. Cc1cnc(-c2cnc(NCCNc3ccc(C#N)cn3)nc2-c2ccc(Cl)cc2Cl)[nH]1 + C[C@@H](Oc1cc(-c2cnn(C3CCNCC3)c2)cnc1N)c1c(Cl)ccc(F)c1Cl [Crizotinib] (partner 1 µM)
2. Cc1cnc(-c2cnc(NCCNc3ccc(C#N)cn3)nc2-c2ccc(Cl)cc2Cl)[nH]1 + COc1cccc2cc(-c3nc([C@H]4CC[C@H](C(=O)O)CC4)n4ncnc(N)c34)[nH]c12 [OSI-027] (partner 0.5 µM)

## Output
1: 0.724; 2: 0.709

====

Give measured relative viability for each item. Keep answers brief.
# System: RERF-LC-KJ
# Experiment Description: relative viability (nuclei count vs DMSO), 5 days (fraction); higher = more cells survive
# Assay Conditions: first compound 0.01581 µM
Answers are plain numbers.

>>> result_number("COc1cc2nccc(Oc3ccc(NC(=O)Nc4cc(C)on4)c(Cl)c3)c2cc1OC [Tivozanib] + CS(=O)(=O)N1CCN(Cc2cc3nc(-c4cccc5[nH]ncc45)nc(N4CCOCC4)c3s2)CC1 [Pictilisib] (partner 1 µM)")
0.471
>>> result_number("Nc1ccn([C@@H]2O[C@H](CO)[C@@H](O)[C@@H]2O)c(=O)n1 [Cytarabine] + NC(=O)Nc1cc(-c2cccc(F)c2)sc1C(=O)N[C@H]1CCCNC1 [AZD7762] (partner 0.2 µM)")
0.941
>>> result_number("COc1cc2nccc(Oc3ccc(NC(=O)Nc4cc(C)on4)c(Cl)c3)c2cc1OC [Tivozanib] + O=C(CCCCCCC(=O)Nc1ccccc1)NO [Vorinostat] (partner 1 µM)")
0.616
>>> result_number("COc1cc2nccc(Oc3ccc(NC(=O)Nc4cc(C)on4)c(Cl)c3)c2cc1OC [Tivozanib] + O=C(c1cc(Cc2n[nH]c(=O)c3ccccc23)ccc1F)N1CCN(C(=O)C2CC2)CC1 [Olaparib] (partner 8 µM)")
0.954
>>> result_number("COc1cc2nccc(Oc3ccc(NC(=O)Nc4cc(C)on4)c(Cl)c3)c2cc1OC [Tivozanib] + CC(=O)Nc1cccc(-n2c(=O)n(C3CC3)c(=O)c3c(Nc4ccc(I)cc4F)n(C)c(=O)c(C)c32)c1 [Trametinib] (partner 0.02 µM)")
0.989

// for each compound below, give its relative viability
1. Nc1ccn([C@@H]2O[C@H](CO)[C@@H](O)[C@@H]2O)c(=O)n1 [Cytarabine] + COc1cc2c(Oc3ccc(NC(=O)C4(C(=O)Nc5ccc(F)cc5)CC4)cc3F)ccnc2cc1OCCCN1CCOCC1 [Foretinib] (partner 0.25 µM)
2. COc1cc2nccc(Oc3ccc(NC(=O)Nc4cc(C)on4)c(Cl)c3)c2cc1OC [Tivozanib] + CCNC(=O)c1noc(-c2cc(C(C)C)c(O)cc2O)c1-c1ccc(CN2CCOCC2)cc1 [Luminespib] (partner 0.01 µM)
3. COc1cc2nccc(Oc3ccc(NC(=O)Nc4cc(C)on4)c(Cl)c3)c2cc1OC [Tivozanib] + N=C(N)NC(=N)NCCc1ccccc1 [Phenformin] (partner 250 µM)

## Output
1. 0.787
2. 1.29
3. 0.375

## Input I'd like to know its relative viability. The compound in question is COc1cc2nccc(Oc3ccc(NC(=O)Nc4cc(C)on4)c(Cl)c3)c2cc1OC [Tivozanib] + COc1cc2c(Oc3ccc(NC(=O)C4(C(=O)Nc5ccc(F)cc5)CC4)cc3F)ccnc2cc1OCCCN1CCOCC1 [Foretinib] (partner 0.25 µM)
## Output 0.79
